Values from patent US9598407B2

Molecular target: S. aureus ATCC 29213 FabI (Staphylococcus aureus (strain MRSA252), UniProt Q6GI75)
Assay: Staphylococcus aureus FabI enzyme inhibition assay
Type: biochemical
Conditions: 30 minutes at room temperature, pH 6.5
Could you please classify the records by FabI IC50 using these ranges: one = under 0.6 µg/mL, two = from 0.6 µg/mL up to 1 µg/mL, three = 1 µg/mL and over

O=C1CCc2cc(/C=C/C(=O)N3CCC(Cc4cccs4)CC3)cnc2N1 [compound 37] | one

Would you kindly look at the next entry?
Q: Exercise: read the entry COc1ccccc1C1=CCN(C(=O)/C=C/c2cnc3c(c2)CCC(=O)N3)CC1 [compound 2] and state which class it falls under.
A: one
